Tested on: MOLM14
Experiment summary: cell viability relative to vehicle control; higher = less cytotoxic;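 also: after 48 h exposure read by CellTiter-Glo luminescence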
Experimental parameters: 10 µM; SRSF2 genotype: SRSF2 wt/wt
Attribute measured: cell viability
Remember to put the unit after the number in your answer.

These solved cases illustrate the format of a correct answer.
• CCOc1ccc(NC(C)=O)cc1 = 95.8%
• N#Cc1cccc(-c2c[nH]c3ncnc(N4CCOCC4)c23)c1 = 103%

We now examine a further compound.
For CC(C)n1c(/C=C/C(O)CC(O)CC(=O)O)c(-c2ccc(F)cc2)c2ccccc21 (stereo not drawn) [Fluvastatin sodium (Lescol)] the compound record lists cell viability as 89.3%

###

Test system: MOLM14
Experiment summary: cell viability relative to vehicle control; higher = less cytotoxic
Experimental parameters: 10 µM; SRSF2 genotype: SRSF2 wt/wt
Where a name gives a salt, the structure may show the parent alone.
Attribute measured: cell viability (%)
Give the number; % is assumed, so skip it.

Consider the reported cell viability for these compounds:
• COc1cc2ncnc(Nc3cccc(Cl)c3F)c2cc1OC(=O)N1CCN(C)C[C@H]1C = 87.3
• CCN1CCC[C@H]1CNC(=O)c1cc(S(N)(=O)=O)ccc1OC [Levosulpiride (Levogastrol)] = 107

For reference, reported cell viability for CC[C@@]1(O)C(=O)OCc2c1cc1n(c2=O)Cc2cc3cc(O)ccc3nc2-1 [Hydroxy Camptothecine] stands at 0.32

Lookup result for `O=C(O)/C=C/c1ccc(O)cc1` ; measured cell viability: 107

Lab book: cell viability of CCCOc1ccc(C(=O)OCCN(CC)CC)cc1N [Proparacaine HCl] noted as 99.7

Entry `CCCn1/c(=N/C(=O)c2cccc(C(N)=O)c2)[nH]c2ccccc21` — recorded cell viability = 91

Memo: O=C(c1ccccc1)c1ccc2n1CCC2C(=O)O (stereo not drawn) , reported cell viability: 102

###

Test system: OCI-AML2
Experiment summary: cell viability relative to vehicle control; higher = less cytotoxic
Experimental parameters: 10 µM; SRSF2 genotype: P95H/wt
Attribute measured: cell viability (%)
Express your answer in %, writing the number without its unit.

Answered cases to consult:
- NC(=O)c1nc(F)cnc1O: 100
- Cc1ccc(S(=O)(=O)n2c(N)nc3ccccc32)cc1: 98.3

Record CN(C(Cc1ccc(OS(=O)(=O)c2cccc3cnccc23)cc1)C(=O)N1CCN(c2ccccc2)CC1)S(=O)(=O)c1cccc2cnccc12 (stereo unspecified) , field cell viability: 75.7

cell viability measured on CCCC1CC(C(=O)NC(C(C)Cl)C2OC(SC)C(O)C(O)C2O)N(C)C1 (stereo unspecified) [Clindamycin alcoholate] = 107

Please fill in: cell viability reported for `Clc1ccc(C(c2c[nH]c3ccccc23)c2c[nH]c3ccccc23)cc1` = 92

GET /value?item= Cc1cnc(Nc2ccc(F)cc2Cl)nc1-c1c[nH]c(C(=O)NC(CO)c2cccc(Cl)c2)c1 (stereo unspecified) &field=cell viability returns 47.4

###

Test system: MOLM14
Experiment summary: cell viability relative to vehicle control; higher = less cytotoxic
Experimental parameters: 10 µM; SRSF2 genotype: SRSF2 P95H/wt
Attribute measured: cell viability (%)
Give the number; % is assumed, so skip it.

Known cell viability results, listed for orientation:
* CO[C@@H]1[C@@H](OC)[C@H](C)[C@@](O)(CC(=O)O)O[C@H]1[C@H](C)[C@H]1O[C@@]2(CC[C@@](C)([C@H]3CC[C@@](C)([C@@H]4O[C@@H]([C@H]5O[C@](C)(O)[C@H](C)C[C@@H]5C)C[C@@H]4O[C@@H]4C[C@H](OC)[C@@H](OC)[C@H](C)O4)O3)O2)C[C@H](O)[C@H]1C | 25.6
* Cn1cc(-c2ccc3c(c2)CCN3C(=O)Cc2cccc(C(F)(F)F)c2)c2c(N)ncnc21 | 16.1
* O=C1C(c2[nH]c3ccc(S(=O)(=O)O)cc3c2O)=Nc2ccc(S(=O)(=O)O)cc21 | 83.1

Continue with the compound presented below.
cell viability recorded for this compound, `COc1cnc(NS(=O)(=O)c2ccc(N)cc2)nc1` , is 105

###

Listed here are compounds together with their documented cell viability.
Tested on: MARIMO
Experiment summary: cell viability relative to vehicle control; higher = less cytotoxic
Experimental parameters: 10 µM; SRSF2 genotype: SRSF2 wt/wt
Structures can show the parent of a compound that is named as a salt.
Give the value, in units of %, as a plain number.

The recorded cell viability for CN1CCC(=C2c3ccccc3C=Cc3ccccc32)CC1 [Cyproheptadine hydrochloride (Periactin)] is 89

For record `COC(=O)[C@H](Cc1ccccc1)NC(=O)[C@@H](N)CC(=O)O` the listed cell viability is 101

get_value(item= COc1ccc(Cl)cc1C(=O)NCCc1ccc(S(=O)(=O)NC(=O)NC2CCCCC2)cc1 [Glyburide (Glibenclamide)] , readout=cell viability) returns 120

###

Test system: K562
Experiment summary: cell viability relative to vehicle control; higher = less cytotoxic
Experimental parameters: 10 µM; SRSF2 genotype: SRSF2 wt/wt
Structures can show the parent of a compound that is named as a salt.
Label key: fulfilled means cell viability under 90%; not fulfilled means cell viability of 90% or more.

These solved cases illustrate the format of a correct answer.
* C[C@@H](O)[C@H]1C(=O)N2C(C(=O)O)=C([C@H]3CCCO3)S[C@H]12 [Faropenem Sodium] | fulfilled
* COc1c(-c2ccc3cc(NS(C)(=O)=O)ccc3c2)cc(-n2ccc(=O)[nH]c2=O)cc1C(C)(C)C | fulfilled
* CCCCCCCCCCCCCCCCCC(=O)O | not fulfilled
* CC(=O)OCC1=C(C(=O)O)N2C(=O)C(NC(=O)CSC(=NC(C)C)NC(C)C)C2SC1 (stereo not drawn) | not fulfilled
* CC1(C)[C@@H](O[C@H]2O[C@H](C(=O)O)[C@@H](O)[C@H](O)[C@H]2O[C@@H]2O[C@H](C(=O)O)[C@@H](O)[C@H](O)[C@H]2O)CC[C@]2(C)[C@H]3C(=O)C=C4[C@@H]5C[C@@](C)(C(=O)O)CC[C@]5(C)CC[C@@]4(C)[C@]3(C)CC[C@@H]12 [Ammonium Glycyrrhizate] | not fulfilled

In: Hello, I'm reviewing records and need to know if cell viability of [F][Ti]([F])([F])[F] [Titanium tetrafluoride] is below 90%. Could you check?
Out: not fulfilled

In: Below 90% on cell viability? Entry N[C@@H](CSCCB(O)O)C(=O)O [BEC Hydrochloride]
Out: not fulfilled

In: Is cell viability of `Cc1c(-c2ccnn2C)cc(C(=O)NCc2ccc(S(C)(=O)=O)cn2)c(=O)n1-c1cccc(C(F)(F)F)c1` strictly below 90%?
Out: not fulfilled

In: Take the compound `CCOC(=O)Nc1cc(-c2ccc(C)c(NS(C)(=O)=O)c2)nn2c(C)nnc12` and say whether its cell viability is less than 90%.
Out: fulfilled

In: Consider the compound O=Cc1ccc(CO)o1 [5-Hydroxymethylfurfural] . Is its cell viability strictly less than 90%?
Out: fulfilled

###

Test system: MARIMO
Experiment summary: cell viability relative to vehicle control; higher = less cytotoxic
Experimental parameters: 10 µM; SRSF2 genotype: SRSF2 P95H/wt
Counter-ions that a name gives are not always drawn.
// reported cell viability for each item listed
Answer in %, number only, no unit symbol.

- Cc1cc(C(C)(C)C)cc(C)c1CC1=NCCN1 [Xylometazoline HCl]: 95.4
- NC(=O)c1ncn([C@@H]2O[C@H](CO)[C@@H](O)[C@H]2O)n1 [Ribavirin (Copegus)]: 87.2
- CCO[C@@H]1OC(=O)C[C@@H]1NC(=O)[C@@H]1CCCN1C(=O)[C@@H](NC(=O)c1ccc(N)c(Cl)c1)C(C)(C)C [Belnacasan (VX-765)]: 95.2

Readout cell viability for C[C@H]1O[C@@H](Oc2c(-c3cc(O)c(O)c(O)c3)oc3cc(O)cc(O)c3c2=O)[C@@H](O)[C@@H](O)[C@@H]1O [Myricitrin (Myricitrine)] , test system MARIMO, was 102

The value of cell viability recorded for COc1ccc(O)cc1 [Mequinol] when tested on MARIMO reads 91.1

For CCOC(=O)[C@H](CCc1ccccc1)N[C@H]1CS[C@H](c2cccs2)CN(CC(=O)O)C1=O [Temocapril HCl] on MARIMO, measured cell viability was 101

Per the reported MARIMO data, CNCCC(Oc1ccc(C(F)(F)F)cc1)c1ccccc1 (centres undefined) [Fluoxetine HCl] has cell viability of 63.5

Simply: `CCn1c(=O)c(-c2cc[nH]n2)cc2c(C)nc(N)nc21` , MARIMO, cell viability = 43.5

# value of cell viability, MARIMO, item COc1ccc(-c2nc(-c3cc(C(F)(F)F)cc(C(F)(F)F)c3)n(Cc3ccc(C(N)=O)cc3)c2-c2ccc(OC)cc2)cc1 [Apoptozole] = 89.9

Value sought: cell viability, system MARIMO, item O=c1cc(-c2ccc(O)cc2)oc2cc(O)cc(O)c12 [Apigenin] . Result: 85.9

GET /values?item= `CCC(CC)(NC(=O)C(C)C)C(=O)N[C@@H](CCCN=C(N)N)C(=O)NC1(C(=O)NC(c2ccc(F)cc2)c2ccc(F)cc2)CCCC1` &system= MARIMO returns cell viability: 93.8

Record `O=C(NOCCO)c1ccc2cncn2c1Nc1ccc(I)cc1F` has MARIMO cell viability equal to 41.2

So the reported cell viability for Nc1nc(Cl)nc2c1ncn2[C@H]1C[C@H](O)[C@@H](CO)O1 [Cladribine] , on MARIMO, turned out to be 12.2

Measured cell viability (MARIMO), entry `CCOC(=O)c1cnc2ccc(-c3cncc(NS(=O)(=O)c4ccccc4)c3)cn12` : 17.1

From: the supplement of paper PMC10981050
